- Test system: β-adrenoreceptor
- EXPERIMENT DESCRIPTION: Heart rate (pulse) increase, i.v., anesthetized dogs
- Assay type: in vivo, dog (male hybrid adult dogs)
- MEASUREMENT SETUP: ED25 compared to isoproterenol as standard compound
Counter-ions that a name gives are not always drawn.
Assign Heart Rate (HR) Relative Potency to each entry below.
One number for each entry.

MOLECULE	OBSERVED MEASUREMENT
CCNC(CC)C(O)c1ccc(OC(C)=O)c2[nH]c(=O)ccc12.Cl (centres unmarked)	45.0
CCNC(CC)C(O)c1ccc(OC(=O)CC(C)C2CCCCC2)c2[nH]c(=O)ccc12.Cl (centres unmarked)	65.4
CCC(NCc1ccccc1)C(O)c1ccc(OC(=O)c2ccc(Cl)cc2)c2[nH]c(=O)ccc12.Cl (centres unmarked)	46.7
COc1ccc(CCNCC(OC(=O)C2CC2)c2ccc(OC(=O)C3CC3)c3[nH]c(=O)ccc23)cc1OC (centres unmarked) [(8), hydrochloride]	68.7

Return the recorded Heart Rate (HR) Relative Potency value; entry: CCNC(CC)C(O)c1ccc(O)c2[nH]c(=O)ccc12.Cl (centres unmarked) [Compound (2), reference compound]
40.0
